system: U251 CNS; assay: NCI-60 one-dose screen, 48 h (100 = growth as untreated, 0 = no growth, -100 = all killed); conditions: 10 µM unless noted
This is part of a sample that, as a whole, favours compounds with a hit. Of some 83,000 tested, about 20% had one in any assay.
// returns False unless growth is strictly below 30%, in which case True

Qu. Is it true that growth reported for N#Cc1cc(-c2ccnc(Nc3ccc(NC(=O)CCl)cc3)n2)ccc1N1CCCC1 is less than 30%?
Ans. True

Qu. In the record for Cc1cccc(-c2nnc(SCC(=O)Nc3ncc(Cc4ccccc4)s3)n2N2C(=O)CSC2=S)c1 , is growth less than 30%?
Ans. False

Qu. Criterion: growth strictly below 30%. Is it met by COc1cc(-c2nn(-c3cccc(NC(=O)CCN4CCN(C)CC4)c3)cc2-c2ccncc2)ccc1Cl ?
Ans. True

Qu. Input CCOC(=O)CC1CSC(c2cccc(Cl)c2)=N1 (stereo not given) ; condition: growth strictly below 30%. Does it hold?
Ans. False

Qu. Does this molecule meet the criterion growth < 30%? Cc1ccc(C(=O)c2ccc(CC(=O)N=Nc3c(O)[nH]c4ccc(OC(F)(F)F)cc34)n2C)cc1
Ans. False
